# Tested on: K. pneumoniae ATCC 13833
# assay-details: microbe, parasite or virus in culture
# experimental-setup: ATCC 13833, 18 h
Where a SMILES comes first, the peptide text is derived from it. Bridges are numbered along the chain shown (N, C = ends). [ ]: non-standard residue; d: D form. The star is where a group is joined. Benzoyl(4-hexyl) = CCCCCCc1ccc(C(=O)*)cc1; Butanoyl(4-OPh) = O=C(CCCOc1ccccc1)*; dOrn = NCCC[C@@H](N)C(=O)O; dDab = NCC[C@@H](N)C(=O)O; Octanoyl = CCCCCCCC(=O)*; Dab = NCC[C@H](N)C(=O)O; Dap = NC[C@H](N)C(=O)O
Measured MIC K. pneumoniae ATCC 13833 values are reported for all entries that follow.
The reply should contain only the number, in µg/mL.

[[record]]
compound = "CC(C)C[C@@H]1NC(=O)[C@@H](Cc2ccccc2)NC(=O)[C@H](CCN)NC(=O)[C@@H](NC(=O)[C@@H](CCN)NC(=O)[C@@H](NC(=O)CCCOc2ccccc2)[C@@H](C)O)CCNC(=O)[C@H]([C@@H](C)O)NC(=O)[C@H](CCN)NC(=O)[C@H](CCN)NC1=O [Compound 26] ({Butanoyl(4-OPh)}-T[dDab][Dab][Dab][dF]L[Dab][Dab]T; lactam 3-C)"
unit_of_measurement = "µg/mL"
value_reported = 4

[[record]]
compound = "CCCCCCCC(=O)N[C@H](C(=O)N[C@@H](CCN)C(=O)N[C@H]1CCNC(=O)[C@H]([C@@H](C)O)NC(=O)[C@H](CCN)NC(=O)[C@H](CCN)NC(=O)[C@H](CC(C)C)NC(=O)[C@@H](Cc2ccccc2)NC(=O)[C@H](CCN)NC1=O)[C@@H](C)O [Compound 8] (Octanoyl-T[Dab][Dab][Dab][dF]L[Dab][Dab]T; lactam 3-C)"
unit_of_measurement = "µg/mL"
value_reported = 1

[[record]]
compound = "CCCCCCc1ccc(C(=O)N[C@H](C(=O)N[C@@H](CCN)C(=O)N[C@H]2CCNC(=O)[C@H]([C@@H](C)O)NC(=O)[C@H](CCN)NC(=O)[C@H](CCN)NC(=O)[C@H](CC(C)C)NC(=O)[C@@H](Cc3ccccc3)NC(=O)[C@H](CCN)NC2=O)[C@@H](C)O)cc1 [Compound 12] ({Benzoyl(4-hexyl)}-T[Dab][Dab][Dab][dF]L[Dab][Dab]T; lactam 3-C)"
unit_of_measurement = "µg/mL"
value_reported = 16

[[record]]
compound = "CCCCCCCC(=O)N[C@H](C(=O)N[C@H](Cc1c[nH]cn1)C(=O)N[C@H]1CCNC(=O)[C@H]([C@@H](C)O)NC(=O)[C@H](CCN)NC(=O)[C@H](CCN)NC(=O)[C@H](CC(C)C)NC(=O)[C@@H](Cc2ccccc2)NC(=O)[C@H](CCN)NC1=O)[C@@H](C)O [Compound 48] (Octanoyl-T[dH][Dab][Dab][dF]L[Dab][Dab]T; lactam 3-C)"
unit_of_measurement = "µg/mL"
value_reported = 4

[[record]]
compound = "CCCCCCCC(=O)N[C@H](C(=O)N[C@@H](CN)C(=O)N[C@H]1CCNC(=O)[C@H]([C@@H](C)O)NC(=O)[C@H](CCN)NC(=O)[C@H](CCN)NC(=O)[C@H](CC(C)C)NC(=O)[C@@H](Cc2ccccc2)NC(=O)[C@H](CCN)NC1=O)[C@@H](C)O [Compound 39] (Octanoyl-T[Dap][Dab][Dab][dF]L[Dab][Dab]T; lactam 3-C)"
unit_of_measurement = "µg/mL"
value_reported = 1

[[record]]
compound = "CCCCCCCC(=O)N[C@@H](CCN)C(=O)N[C@H](C(=O)N[C@H](CCN)C(=O)N[C@H]1CCNC(=O)[C@H]([C@@H](C)O)NC(=O)[C@H](CCN)NC(=O)[C@H](CCN)NC(=O)[C@H](CC(C)C)NC(=O)[C@@H](Cc2ccccc2)NC(=O)[C@H](CCN)NC1=O)[C@@H](C)O [Compound 20] (Octanoyl-[Dab]T[dDab][Dab][Dab][dF]L[Dab][Dab]T; lactam 4-C)"
unit_of_measurement = "µg/mL"
value_reported = 0.5


Consider the additional compound presented here.
Recorded MIC K. pneumoniae ATCC 13833 for CCCCCCCC(=O)N[C@H](C(=O)N[C@H](CCCN)C(=O)N[C@H]1CCNC(=O)[C@H]([C@@H](C)O)NC(=O)[C@H](CCN)NC(=O)[C@H](CCN)NC(=O)[C@H](CC(C)C)NC(=O)[C@@H](Cc2ccccc2)NC(=O)[C@H](CCN)NC1=O)[C@@H](C)O [Compound 41] (Octanoyl-T[dOrn][Dab][Dab][dF]L[Dab][Dab]T; lactam 3-C) on K. pneumoniae ATCC 13833 was 32
